# ASSAY_INFO: Quantitative highthroughput screen to assess conditional lethalithy of SEM cells grown in RPMI1640 with dialyzed fetal bovine serum (RPMI+ds) (AID 1963884); further: nearly all actives have a fitted effect of over 35% in size
# TEST_CONDITIONS: SEM B-ALL cells, RPMI+dialyzed FBS, CellTiter-Glo viability, 48 h; series mostly up to 45.8 µM
Results filed as inconclusive are left out. Activity calls are given as the source filed them. The call rests on the fitted dose curve; in most records, active means well fitted cell-killing curve with a large enough effect; inconclusive means small, poorly fitted or top-dose-only effect, or effect the other way; inactive means no such curve, though single readings can be large or run the other way.
Tick one outcome: true for active, false for inactive

What is the recorded call for this molecule in the test? CN(C)[C@@H](CCOc1cccc2ccccc12)c1ccccc1
false

What is the recorded call for this molecule in the test? CC(NCc1ccc2c(c1)nc(NC(=O)c1ccc(-c3cn[nH]c3)s1)n2CC(C)(C)O)C(C)(C)C (centres undefined)
true

What is the recorded call for this molecule in the test? Cc1noc(-c2ccc(CSCCC(=O)O)cc2)c1NC(=O)OC(C)c1ccccc1Cl (centres undefined)
false

What is the recorded call for this molecule in the test? NC1(Cc2ccc(Cl)cc2)CCN(c2ncnc3[nH]ccc23)CC1
true

What is the recorded call for this molecule in the test? O=C(O)c1cc(=O)[nH]c(=O)[nH]1
false

What is the recorded call for this molecule in the test? CCC[C@H]1C[C@H](C(=O)N[C@@H]([C@@H]2O[C@@H](SC)[C@@H](O)[C@@H](O)[C@@H]2O)[C@H](C)Cl)N(C)C1
false

What is the recorded call for this molecule in the test? COCCCOc1cc(C[C@@H](C[C@H](N)[C@@H](O)C[C@H](C(=O)NCC(C)(C)C(N)=O)C(C)C)C(C)C)ccc1OC
false

What is the recorded call for this molecule in the test? COc1ccc2c(c1)c(CC(=O)O)c(C)n2C(=O)c1ccc(Cl)cc1
false

What is the recorded call for this molecule in the test? CC(COc1ccccc1)N(CCCl)Cc1ccccc1 (centres undefined)
false
